Biological target: T1, human MSLN-R3-3 polypeptide (human)
T1 construct: Part of region R3 of human MSLN; also called hMSLN-R3-3; human MSLN-R3-3 protein
Test: ELISA, coated antigen, antibody 0.01 nM
observed_property: OD450
Please state the value as a number alone, without comment.

[
  {
    "binder": "S009-F6-62.5 chimeric antibody (antibody, human IgG1, kappa, V domains shown, Human-murine chimeric antibody, human IgG1/kappa constant regions) VH: QVQLQQPGTELVKPGASVKLSCRASGYTFTAYWMHWVKQRPGQGLEWIGNINPSNGGTDFNEKFKSKATLTVDKSSSTAYMQLSSLTSEDSAVYYCARGRGYFDVWGTGTTVTVSS VL: DILLTQSPAILSVSPGERVSFSCRASKNIGTSIHWYQQRTNGSPRLLIKYASESISGIPSRFSGSGSGTDFTLNINSVESEDIADYYCQQSNSWPTLTFGAGTKLELKR",
    "quantitative_result": 0.04
  },
  {
    "binder": "S009-F5-9.16 chimeric antibody (antibody, human IgG1, kappa, V domains shown, Human-murine chimeric antibody, human IgG1/kappa constant regions) VH: EVQLRQSGPVLVKPGASVKMSCKASGYTFTDYFMNWVKPSHGKSLEWIGVINPSNGVINYNQRFKGKATLTVDKSSSTAYMELNSLTSEDSAVYYCARSYDFAWFAYWGQGTLVTVSA VL: DVLMTQTPLSLPVSLGDQASISCRSSQNIVHSNGNTYLEWYLQKPGQSPKLLIYTVSNRFSGVPDRFSGSGSGTDFTLKISRVEAEDLGVYYCFQGSHVPYTFGGGTKLEIKR",
    "quantitative_result": 0.04
  }
]

Reported OD450 for S009-F4-127.10 chimeric antibody (antibody, human IgG1, kappa, V domains shown, Human-murine chimeric antibody, human IgG1/kappa constant regions) VH: EVQLQQSGPVLVKPGASVKMSCKASGYTFTDYYMNWVKQSHGKSPEWIGVINPYNDVISYNQKFKGKATLTVDKSSSTAYMELNSLTSEDSAVYYCANYGSSYYAMDYWGQGTSVTVSS VL: DVVMTQTPLSLSVSLGDQASISCRSSQSLVHSNGNTYLQWSLQKPGQSPNLLIYKVSNRFSGVPDRFSGSGSGTDFTLKISRVEAEDLGVYFCSQTTHVPFTFGGGTKLEIRR was 0.05

Reported OD450 for S009-F4-94.15 chimeric antibody (antibody, human IgG1, kappa, V domains shown, Human-murine chimeric antibody: murine VH/VL on human IgG1 heavy and kappa light constant regions) VH: QVQLHQPGAELVRPGSSVKLSCKASGYTFTSYWVHWVQQRPRQGLEWIGNIDPSDSEIHYNQKFKDKATLTVDKSSSTAYIHLSRLTSEDSAIYYCVRGGVPWFAYWGQGTLVTVSA VL: QIVLTQSPAIMSASPGEKVTLTCSASSSVSSTYLYWFQQKPGSSPKVWIYSTSNLASGVPARFSGSGSGTSYSLTISSMEAEDAASYFCHQWISYPYTFGGGTKLEIKR was 0.05

Reported OD450 for S009-F6-76.1 chimeric antibody (antibody, human IgG1, kappa, V domains shown, Human-murine chimeric antibody, human IgG1/kappa constant regions) VH: QVQLQQSGPELVKPGASVKISCKASGYTFTDYYINWVKQRPGQGLEWIGWIFPGRGSTFYYEKFKGKATLTVDKSSSTAYMLLSSLTSEDSAVYFCARRGDSAGYEDLDYWGQGTSVTVSS VL: NIVMTQSPKFMSMSVGERVTLSCKASENVVTYVSWYQQKPKQSPKLLIYGASKRYTGVPDRFTGSGSATDFTLTISSVQAEDLGDYHCGQSYSYPYTFGGGTKLEIKR was 0.05
